The reported measurements were obtained from paper PMC7305224.

Tested on: RNA duplex 1 (5′-rCrGrCrUrArArArUrCrG-3′ & 5′-rCrGrArUrUrUrArGrCrG-3′)
protocol.summary: RNA thermal denaturation (Tm) by UV hyperchromicity at 260 nm with synthetic peptides/depsipeptides, RNA duplex 1
Type: binding
reported.conditions: peptide/depsipeptide 100 μM, RNA 2.5 μM each strand, 10 mM phosphate, 100 mM NaCl, pH 7.0; vs RNA alone at matched pH; mean of 2–4 replicates
recorded.endpoint: RNA duplex 1 ΔTm (°C)
Field format: number, assumed °C, no unit text.

Aba-Gly-Ala-Dab-Lys-Ala-Dab-Lys-lac-Dab-Lys-Ala-Dab-Lys-NH2 [compound 9]
10.4
Aba-Gly-Ala-Dab-Lys-Ala-Dab-Arg-lac-Dab-Lys-Ala-Dab-Lys-NH2 [compound 7]
8.7
Aba-Gly-Ala-Dab-Lys-Ala-Dab-Dab-lac-Dab-Lys-Ala-Dab-Lys-NH2 [compound 11]
4.9

Consider the substance Aba-Gly-Ala-Dab-Lys-Ala-Dab-Orn-lac-Dab-Lys-Ala-Dab-Lys-NH2 [compound 10] and give its measured RNA duplex 1 ΔTm.
4.9

Consider the substance Aba-Gly-Ala-Dab-Lys-Ala-Dab-His-lac-Dab-Lys-Ala-Dab-Lys-NH2 [compound 8] and give its measured RNA duplex 1 ΔTm.
5.1
